- ASSAY METHOD TEXT: A CellTox Green Cytotoxicity Assay to monitor cytotoxicity in HEK293 cells - 16 hour (AID 1224888); note: nearly all actives have a fitted effect of over 35% in size
- PARTICULARS: CellTox Green fluorescence; series mostly up to 76.8 µM
Inconclusive results are not listed. Active and inactive are the calls of the source. Calls come from the whole dose curve; as a rule, active = well fitted activation curve with a large enough effect in the repeat runs; inconclusive = weak or mixed curves; inactive = flat fitted curve, though single readings scatter.
Mark one answer only. Choices: active, inactive

Q: In this assay, the call recorded for BrCC(Br)(Br)Br was what?
A: inactive

Q: Same read-out for CC(=O)[O-].CC(=O)[O-].[Co+2] ?
A: inactive

Q: Same read-out for CCC[CH2][Sn]([CH2]CCC)([CH2]CCC)[O][Sn]([CH2]CCC)([CH2]CCC)[CH2]CCC ?
A: active

Q: Same read-out for O=S(=O)(NS(=O)(=O)C(F)(F)F)C(F)(F)F ?
A: inactive

Q: Same read-out for CNC(=O)O/N=C(\C)C(C)S(C)(=O)=O (stereo not given) ?
A: inactive

Q: Same read-out for O.O.O.O.O.O.O.O=S(=O)([O-])[O-].[Co+2] ?
A: inactive

Q: Same read-out for O=c1[nH]c2cc(Cl)ccc2n1C1CCNCC1 ?
A: inactive

Q: Same read-out for O=P(Cl)(Cl)Cl ?
A: inactive

Q: Same read-out for Cc1cnc2c(C(=O)O)c(Cl)ccc2c1 ?
A: inactive

Q: Same read-out for CC[N+]1(CC)CCC(OC(=O)C(O)(c2ccccc2)c2ccccc2)C1 (stereo not given) ?
A: inactive

Q: Same read-out for CCCCC/C=C\C/C=C\C/C=C\C/C=C\CCCC(=O)NCC(=O)O ?
A: inactive

Q: Same read-out for c1cc[n+]2c(c1)-c1cccc[n+]1CC2 ?
A: inactive

Q: Same read-out for O=C(O)[C@H](O)[C@@H](O)C(=O)O ?
A: inactive

Q: Same read-out for CCNc1nc(NC(C)C(C)C)nc(SC)n1 (stereo not given) ?
A: inactive

Q: Same read-out for O=C1C[C@@H]2OCC=C3CN4CC[C@]56c7ccccc7N1[C@H]5[C@H]2[C@H]3C[C@H]46 ?
A: inactive

Q: Same read-out for COCCC#N ?
A: inactive

Q: Same read-out for O=c1c2ccccc2c(=O)c2c1cc(Cl)c1[nH]c3c([nH]c12)c(Cl)cc1c(=O)c2ccccc2c(=O)c13 ?
A: inactive

Q: Same read-out for CC(C)c1c(CN(C)C(C)Cc2ccccc2)n(C)n(-c2ccccc2)c1=O (stereo not given) ?
A: inactive

Q: Same read-out for CN=C=O ?
A: inactive

Q: Same read-out for OCC(Br)CBr (stereo not given) ?
A: inactive

Q: Same read-out for Cc1c([N+](=O)[O-])c(C)c([N+](=O)[O-])c(C(C)(C)C)c1[N+](=O)[O-] ?
A: inactive

Q: Same read-out for CCn1cc[n+](C)c1 (tested in a mixture with another compound) ?
A: inactive

Q: Same read-out for CCOP(=S)(NC(C)C)Oc1ccccc1C(=O)OC(C)C (stereo not given) ?
A: inactive

Q: Same read-out for CNC(=O)/C=C(\C)OP(=O)(OC)OC ?
A: inactive

Q: Same read-out for CCO/N=C(\CC)C1=C(O)CC(c2c(C)cc(C)cc2C)CC1=O (stereo not given) ?
A: inactive
